Assay: Thermogravimetric analysis (TGA) weight loss
Assay type: physicochemical
Conditions: large scale batch, at the temperature printed in the same cell (100-170° C.)
Quick list: Weight loss (%) at Temperature (° C.) per entry.
Give just the number in at %; leave the unit off.

Take a look at these entries with their results.
Given the molecule COc1cc(C(F)(F)F)c(OC)cc1[C@@H]1CCCNC1.O=C(O)CCC(=O)O [Succinate salt Polymorph A (anhydrate)] , what is its reported Weight loss (%) at Temperature (° C.)?
0.2

And "COc1cc(C(F)(F)F)c(OC)cc1[C@@H]1CCCNC1.Cl" ?
0.3

And COc1cc(C(F)(F)F)c(OC)cc1[C@@H]1CCCNC1 [Free base (Polymorph B)] ?
8.0

Next item in the queue.
Given the molecule COc1cc(C(F)(F)F)c(OC)cc1[C@@H]1CCCNC1.O=C(O)C(O)C(O)C(=O)O [L-tartrate salt (Polymorph B, anhydrate)] , what is its reported Weight loss (%) at Temperature (° C.)?
0.4

----------
Experiment: Crystallinity by XRPD
Type: physicochemical
Conditions: salt screening sample
EXPERIMENTAL_ENDPOINT: Crystallinity

Take a look at these entries with their results.
Given the compound COc1cc(C(F)(F)F)c(OC)cc1[C@@H]1CCCNC1.O=S(=O)(O)O [Sulfate salt Polymorph A] , what is its reported Crystallinity?
High

And COc1cc(C(F)(F)F)c(OC)cc1[C@@H]1CCCNC1.O=P(O)(O)O [Phosphate salt Polymorph A] ?
Medium

And COc1cc(C(F)(F)F)c(OC)cc1[C@@H]1CCCNC1.O=C(O)C(O)C(O)C(=O)O [L-tartrate salt (Polymorph B, anhydrate)] ?
High

And COc1cc(C(F)(F)F)c(OC)cc1[C@@H]1CCCNC1.O=C(O)/C=C/C(=O)O [Mono-fumarate salt Polymorph C] ?
Medium

And COc1cc(C(F)(F)F)c(OC)cc1[C@@H]1CCCNC1.O=C(O)C[C@H](O)C(=O)O [L-malate salt Polymorph A] ?
High

Next item in the queue.
Given the compound COc1cc(C(F)(F)F)c(OC)cc1[C@@H]1CCCNC1 [Free base (Polymorph B)] , what is its reported Crystallinity?
High

----------
Test: Solubility in pH buffers and bio-relevant media at 37° C.
Assay type: physicochemical
Settings: thermodynamic from solid, FaSSIF-V1, pH 6.5, tested up to 2 mg/mL
EXPERIMENTAL_ENDPOINT: solubility at 24 h

Given the molecule COc1cc(C(F)(F)F)c(OC)cc1[C@@H]1CCCNC1 [Free base (Polymorph B)] , what is its reported solubility at 24 h?
> 2000 µg/mL

----------
Assay: Hygroscopicity (water uptake) of salt hits
Type: physicochemical
Conditions: salt screening sample; grade in words
EXPERIMENTAL_ENDPOINT: Hygroscopicity

Take a look at these entries with their results.
Given the compound COc1cc(C(F)(F)F)c(OC)cc1[C@@H]1CCCNC1.COc1cc(C(F)(F)F)c(OC)cc1[C@@H]1CCCNC1.O=C(O)CCC(=O)O [Hemi-succinate salt Polymorph B] , what is its reported Hygroscopicity?
Hygroscopic

And COc1cc(C(F)(F)F)c(OC)cc1[C@@H]1CCCNC1.C[C@H](O)C(=O)O [L-lactate salt Polymorph A] ?
None

And COc1cc(C(F)(F)F)c(OC)cc1[C@@H]1CCCNC1.O=C(O)C(O)C(O)C(=O)O [L-tartrate salt (Polymorph B, anhydrate)] ?
None

And COc1cc(C(F)(F)F)c(OC)cc1[C@@H]1CCCNC1.N[C@@H](CC(=O)O)C(=O)O [L-aspartate salt Polymorph A] ?
Hygroscopic

And CC(=O)O.COc1cc(C(F)(F)F)c(OC)cc1[C@@H]1CCCNC1 [Acetate salt Polymorph A] ?
None

Next item in the queue.
Given the compound "COc1cc(C(F)(F)F)c(OC)cc1[C@@H]1CCCNC1.Cl" , what is its reported Hygroscopicity?
None

----------
Assay type: physicochemical
Conditions: salt screening sample
Rule for this label: met means Water content (% w/w) is less than 7 % w/w; not met means Water content (% w/w) is at least 7 % w/w.

Reference set (5 entries):
Quick check: does COc1cc(C(F)(F)F)c(OC)cc1[C@@H]1CCCNC1.C[C@H](O)C(=O)O [L-lactate salt Polymorph A] have Water content (% w/w) under 7 % w/w?
met

And COc1cc(C(F)(F)F)c(OC)cc1[C@@H]1CCCNC1.O=C(O)C[C@H](O)C(=O)O [L-malate salt Polymorph A] ?
met

And COc1cc(C(F)(F)F)c(OC)cc1[C@@H]1CCCNC1.N[C@@H](CCC(=O)O)C(=O)O [L-glutamate salt Polymorph C] ?
not met

And COc1cc(C(F)(F)F)c(OC)cc1[C@@H]1CCCNC1.N[C@@H](CCC(=O)O)C(=O)O [L-glutamate salt Polymorph A] ?
not met

And COc1cc(C(F)(F)F)c(OC)cc1[C@@H]1CCCNC1 [Free base (Polymorph B)] ?
not met

Further cases:
Quick check: does COc1cc(C(F)(F)F)c(OC)cc1[C@@H]1CCCNC1.COc1cc(C(F)(F)F)c(OC)cc1[C@@H]1CCCNC1.O=C(O)/C=C/C(=O)O [Hemi-fumarate salt Polymorph B] have Water content (% w/w) under 7 % w/w?
not met

And COc1cc(C(F)(F)F)c(OC)cc1[C@@H]1CCCNC1.COc1cc(C(F)(F)F)c(OC)cc1[C@@H]1CCCNC1.O=C(O)/C=C/C(=O)O [Hemi-fumarate salt Polymorph A] ?
met

----------
Assay: Solubility of diastereomeric salts in solvents
Type: physicochemical
Conditions: 20 °C, organic solvent or mixture; in ACN; read-out: Solubility @ 20-30° C.
EXPERIMENTAL_ENDPOINT: solubility
Could you give the number and then its unit, please?

Given the compound COc1cc(C(F)(F)F)c(OC)cc1[C@@H]1CCCNC1 [drawing 39] , what is its reported solubility?
12 mg/mL

----------
Assay: Salt screening (slurry crystallization)
Type: physicochemical
Parameters: key: (+) shows that a crystalline salt was formed; (−) physical mixtures
Conditions: ACN; slurry 50° C. then 25° C.
Protocol: About 45 mg was added to a suitable solvent and different equivalents of acids were added under stirring at 50° C. for about 2 hours and then at 25° C. for at least 32 hours. Ethanol, acetone, and ACN were used as screening solvents. When no precipitation was obtained or only a few solids were obtained, the solutions were placed at 5° C. for crystallization. Obtained suspensions were taken out and centrifuged. Solids obtained was analysed by XRPD. […]
EXPERIMENTAL_ENDPOINT: Salt screening result

Take a look at these entries with their results.
Given the molecule COc1cc(C(F)(F)F)c(OC)cc1[C@@H]1CCCNC1.COc1cc(C(F)(F)F)c(OC)cc1[C@@H]1CCCNC1.O=C(O)CCC(=O)O [Hemi-succinate salt Polymorph B] , what is its reported Salt screening result?
+

And CC(=O)O.COc1cc(C(F)(F)F)c(OC)cc1[C@@H]1CCCNC1 [Acetate salt Polymorph A] ?
+

And COc1cc(C(F)(F)F)c(OC)cc1[C@@H]1CCCNC1.O=C(O)CCC(=O)O [Succinate salt Polymorph A (anhydrate)] ?
+

And COc1cc(C(F)(F)F)c(OC)cc1[C@@H]1CCCNC1.N[C@@H](CC(=O)O)C(=O)O [L-aspartate salt Polymorph A] ?
+

And COc1cc(C(F)(F)F)c(OC)cc1[C@@H]1CCCNC1.O=C(O)/C=C/C(=O)O [Mono-fumarate salt Polymorph C] ?
+

And COc1cc(C(F)(F)F)c(OC)cc1[C@@H]1CCCNC1.COc1cc(C(F)(F)F)c(OC)cc1[C@@H]1CCCNC1.O=C(O)C(O)C(O)C(=O)O [Hemi L-tartrate salt Polymorph A] ?
+

And COc1cc(C(F)(F)F)c(OC)cc1[C@@H]1CCCNC1.O=S(=O)(O)O [Sulfate salt Polymorph A] ?
+

And COc1cc(C(F)(F)F)c(OC)cc1[C@@H]1CCCNC1.C[C@H](O)C(=O)O [L-lactate salt Polymorph A] ?
+

And "COc1cc(C(F)(F)F)c(OC)cc1[C@@H]1CCCNC1.Cl" ?
+

And COc1cc(C(F)(F)F)c(OC)cc1[C@@H]1CCCNC1.O=C(O)C(O)C(O)C(=O)O [L-tartrate salt (Polymorph B, anhydrate)] ?
+

Further cases:
Given the molecule COc1cc(C(F)(F)F)c(OC)cc1[C@@H]1CCCNC1.C[C@@H](O)C(=O)O [D-lactate salt Polymorph A] , what is its reported Salt screening result?
Clear solution

And COc1cc(C(F)(F)F)c(OC)cc1[C@@H]1CCCNC1.O=C(O)C[C@H](O)C(=O)O [L-malate salt Polymorph A] ?
+

And COc1cc(C(F)(F)F)c(OC)cc1[C@@H]1CCCNC1 [Free base (Polymorph B)] ?
Clear solution

----------
Assay: Thermogravimetric analysis (TGA) weight loss
Type: physicochemical
Conditions: salt screening sample, at the temperature given (80-200° C.)
Quick list: Weight loss (%) per entry.
Give just the number in %; leave the unit off.

Take a look at these entries with their results.
Given the compound COc1cc(C(F)(F)F)c(OC)cc1[C@@H]1CCCNC1.N[C@@H](CC(=O)O)C(=O)O [L-aspartate salt Polymorph A] , what is its reported Weight loss (%)?
3.9

And COc1cc(C(F)(F)F)c(OC)cc1[C@@H]1CCCNC1.N[C@@H](CCC(=O)O)C(=O)O [L-glutamate salt Polymorph A] ?
4.8

And COc1cc(C(F)(F)F)c(OC)cc1[C@@H]1CCCNC1.N[C@@H](CCC(=O)O)C(=O)O [L-glutamate salt Polymorph B] ?
6.6

And COc1cc(C(F)(F)F)c(OC)cc1[C@@H]1CCCNC1.O=P(O)(O)O [Phosphate salt Polymorph A] ?
0.7

And CC(=O)O.COc1cc(C(F)(F)F)c(OC)cc1[C@@H]1CCCNC1 [Acetate salt Polymorph A] ?
0.2

And COc1cc(C(F)(F)F)c(OC)cc1[C@@H]1CCCNC1.O=C(O)CCC(=O)O [Succinate salt Polymorph A (anhydrate)] ?
2.1

And COc1cc(C(F)(F)F)c(OC)cc1[C@@H]1CCCNC1.O=S(=O)(O)O [Sulfate salt Polymorph A] ?
8.2

And COc1cc(C(F)(F)F)c(OC)cc1[C@@H]1CCCNC1.COc1cc(C(F)(F)F)c(OC)cc1[C@@H]1CCCNC1.O=C(O)CCC(=O)O [Hemi-succinate salt Polymorph B] ?
4.8

Further cases:
Given the compound COc1cc(C(F)(F)F)c(OC)cc1[C@@H]1CCCNC1.O=C(O)/C=C/C(=O)O [Mono-fumarate salt Polymorph C] , what is its reported Weight loss (%)?
0.6

And "COc1cc(C(F)(F)F)c(OC)cc1[C@@H]1CCCNC1.Cl" ?
0.08

The values you see were collected from patent US12723024B2.
